# assay_info: NCI Yeast Anticancer Drug Screen. Data for the bub3 strain (AID 167)
# settings: S. cerevisiae bub3 mutant strain, at 50.0 µM, hits give high values
# Experimental: Growth inhibition of yeast strains with defined genetic alterations is measured as a screen for potential anti-cancer activity. Selected strains with alterations in DNA damage repair or cell cycle control were exposed to compounds and growth inhibition was measured relative to vehicle treated controls. The strain used in this assay is bub3
This is part of a sample that, as a whole, favours compounds with a hit. Of some 79,000 tested, about 15% had one in any assay.
measured_parameter: growth inhibition (%)
Number only, in %; omit the unit.

Worked set:
compound	reported_measurement
O=S(=O)(Nc1cccc(Cl)c1)c1ccc(F)cc1	-11.3
Cc1ccc(-c2c(C#N)c(-c3ccccc3)c(C#N)c(=O)n2NS(=O)(=O)c2ccc(C)cc2)cc1	18.2
O=c1nc(NCCc2c[nH]c3ccccc23)ccn1C1OC(CO)C(O)C1O (stereo unspecified)	-1.45
CC1CC(=O)c2cc3oc(=O)n(C)c3cc21 (stereo unspecified)	19.2
CCOC(=O)C(NC(N)=O)C(=O)OCC	21.9

Qu. Entry `CC(C)(C)C(=O)OCn1cc2c(=O)[nH]cnc2n1` : reported growth inhibition = ?
Ans. -8.7

###

# assay_info: NCI Yeast Anticancer Drug Screen. Data for the sgs1 mgt1 strain (AID 161);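 note: 0% = growth of cultures given vehicle only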
# settings: S. cerevisiae sgs1 mgt1 strain, at 50.0 µM, hits give high values
Compounds without any hit were thinned out: in the full panel of roughly 79,000, 15% have a hit.
measured_parameter: growth inhibition (%)
Number only, in %; omit the unit.

compound	unit_annotation	growth inhibition
CC(=O)c1ccccc1NCC(=O)Nn1cnc2ccc(S(=O)(=O)Nc3ccccc3C(C)=O)cc2c1=O	%	12.9
C=CCCCCCCCCC1OCC(CC)C(CCC)O1 (configuration not stated)	%	-2.8
COC1OC(COS(C)(=O)=O)C(OS(C)(=O)=O)C(OC(=O)c2ccccc2)C1OS(C)(=O)=O (configuration not stated)	%	-9.6

Qu. Entry `CC(C)(C)NC1=C([N+](=O)[O-])CCCC1` : reported growth inhibition = ?
Ans. -1.05

Qu. Entry `Cc1ccc2cc(N(C)C)ccc2[n+]1C` : reported growth inhibition = ?
Ans. 39.9

Qu. Entry `Cn1c2c(c3ccccc31)CCCC2` : reported growth inhibition = ?
Ans. 1.4

Qu. Entry COc1ccc(N2C(=O)C3c4[nH]c5ccccc5c4C4CCC(C(C)(C)C)CC4C3C2=O)cc1OC (configuration not stated) : reported growth inhibition = ?
Ans. 14.8

Qu. Entry `c1ccc(CCCOCCCc2ccccc2)cc1` : reported growth inhibition = ?
Ans. 9.15

Qu. Entry `CCCCNC(=O)c1ccc([N+](=O)[O-])cc1` : reported growth inhibition = ?
Ans. 13.4

Qu. Entry `CC(C)N(CC(=O)NC(=O)c1ccccc1)C(C)C` : reported growth inhibition = ?
Ans. -3.55

Qu. Entry `CCOc1ccc(S(=O)(=O)OCC)cc1` : reported growth inhibition = ?
Ans. -25.2

Qu. Entry `CN(C)c1ccc(/C=C/C(=O)CC(=O)/C=C/c2ccc(N(C)C)cc2)cc1` : reported growth inhibition = ?
Ans. -28.2

###

# assay_info: NCI Yeast Anticancer Drug Screen. Data for the mec2-1 strain (AID 157)
# settings: S. cerevisiae mec2-1 strain, at 50.0 µM
The panel holds about 79,000 compounds, 15% with a hit somewhere; the sample as a whole holds those more often. Active and inactive are the calls of the source. Cut-off read from the data, not from the text of the source: active = growth inhibition above about 70%; inactive = the rest.
Mark one answer only. Choices: Yes for active, No for inactive

compound	category_label
COc1cc(OC)c(NC(=O)NC(C)(C)C)cc1Cl	No
CCOC(=O)c1c(C)c2c(n1C)CC/C(=C/NCCc1ccccc1)C2=O	Yes
CCN(CC)CC(O)c1ccc2c(ccc3ccccc32)c1 (centres undefined)	No
COCCC(=O)SCc1ccccc1	No
Cc1cc(C(O)CNCCn2cnc3c2c(=O)n(C)c(=O)n3C)ccc1O (centres undefined)	No

Okay, next one:
Qu. Name the outcome recorded for `COC(=O)/C=C(/C)c1ccccc1` in the assay.
Ans. No
